Target: human PDHK2 (hPDHK2) (Homo sapiens (Human), UniProt Q15119)
Experiment: Inhibitory action of PDHK activity in vitro (kinase reaction, residual PDH activity measured)
Type: biochemical
Conditions: read-out: PDHK inhibitory activity IC50
readout_type: IC50 (nM)
Your answer should be a plain number; it is taken to be in nM.

molecule	IC50 (nM)
Cc1cc(-c2cnn(CCO)c2)c2c(c1)C(O)(C(F)(F)F)c1ccccc1-2 (centres unmarked)	40
CCCOC1CN(C(=O)c2ccc3c(c2)C(O)(C(F)(F)F)c2ccccc2-3)C1 (centres unmarked)	259
CC(=O)N(C)CCOc1cc(-c2cncnc2)c2c(c1)C(O)(C(F)(F)F)c1ccccc1-2 (centres unmarked)	23
CN(CCOc1cc(Cl)c2c(c1)C(O)(C(F)(F)F)c1ccccc1-2)C(=O)CO (centres unmarked)	67

Please give the measured IC50 for this molecule: NC(=O)c1cc(-c2cnn(CC3CCCCC3)c2)cc2c1-c1ccccc1C2(O)C(F)(F)F (centres unmarked) [compound 662]
34

Query O=C1CC[C@H](COc2ccc3c(c2)C(O)(C(F)(F)F)c2ccccc2-3)N1 (some centres unmarked) next
605

Query O=C(c1cc(CO)c2c(c1)C(O)(C(F)(F)F)c1ccccc1-2)N1CC(O)C1 (centres unmarked) next
130

Query Cc1cc(C(=O)N2CCC2)cc2c1-c1ccccc1C2(O)C(F)(F)F (single isomer, unassigned) [compound 136] next
25

Query CC(C)(C)OC(=O)NCCOc1ccc2c(c1)C(O)(C(F)(F)F)c1ccccc1-2 (centres unmarked) next
362

Query OC1(C(F)(F)F)c2ccccc2-c2ccc(-c3ccc(Cl)cc3)cc21 (centres unmarked) next
1340

Query OC1(C(F)(F)F)c2ccccc2-c2c(Cl)cc(F)cc21 (centres unmarked) [compound 525] next
677

Query Cn1cc(-c2cc(OCC(CO)CO)cc3c2-c2ccccc2C3(O)C(F)(F)F)cn1 (centres unmarked) next
33

Query O=C1OCCCN1CCOc1ccc2c(c1)C(O)(C(F)(F)F)c1ccccc1-2 (centres unmarked) next
168

Query O=C1CCCN1CCCOc1ccc2c(c1)C(O)(C(F)(F)F)c1ccccc1-2 (centres unmarked) next
699

Query OCCCCOc1cc(-c2cnn(CCO)c2)c2c(c1)C(O)(C(F)(F)F)c1ccccc1-2 (single isomer, unassigned) next
14
